B1: VH:VL chains; a variant is named by its letters at X, in order (parent)
chain 1: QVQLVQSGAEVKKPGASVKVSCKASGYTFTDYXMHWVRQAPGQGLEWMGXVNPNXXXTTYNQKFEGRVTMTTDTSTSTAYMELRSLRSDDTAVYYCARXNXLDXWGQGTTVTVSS
chain 2: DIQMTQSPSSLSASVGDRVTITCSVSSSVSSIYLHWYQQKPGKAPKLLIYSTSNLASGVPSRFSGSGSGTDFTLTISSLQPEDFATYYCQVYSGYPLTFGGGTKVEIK

Variants of: B1
Experiment: yeast display scFab, FACS + sequencing

variant	non-specific binding call
VRRGSSGD	binds
YKGRSSSS	binds
YRGAGSGS	binds
DEGRGDWY	no binding
VREGDYLS	binds
FRRGSSGD	binds
SRGRGYGD	binds
YKGRDALD	binds
AERRDDGA	no binding
FTRESFAA	binds
VAGTGASD	no binding
FKGKGAWY	binds
YRERGAAD	binds
DAEESDGA	no binding
DKAGGDGS	no binding
SRRRGSAA	binds
VETGNAVY	no binding
YKGRGFGD	binds
AEREADWV	no binding
VGGTSDWA	no binding
YKGKGVGV	binds
AKTKSDWV	no binding

Ref: the emibetuzumab library of Makowski et al. (2022)
